# Tested on: RAW macrophages
# TEST_DESCRIPTION: Cell viability (CellTiter-Glo), RAW macrophages
# Format: cell-based, mouse
# TEST_SETTINGS: CellTiter-Glo
MEASURED_QUANTITY: Cell viability (%) RAW macrophages 50 μM
Field: numeric (%). Do not append units.

Check out these entries, answers already filled in.
INSERT INTO assay_data (molecule, measured_quantity, data_value) VALUES
  ('C#Cc1ccc2c(c1)C(c1ccccc1F)=N[C@H](C)C(=O)N2 [GL-I-62]', 'Cell viability (%) RAW macrophages 50 μM', 100),
  ('C#Cc1ccc2c(c1)C(c1ccccc1F)=N[C@@H](C)c1c(-c3cnco3)ncn1-2 [GL-III-78]', 'Cell viability (%) RAW macrophages 50 μM', 97),
  ('C#Cc1ccc2c(c1)C(c1ccccn1)=N[C@H](C)c1c(C(=O)OC)ncn1-2 [GL-II-32]', 'Cell viability (%) RAW macrophages 50 μM', 100),
  ('C#Cc1ccc2c(c1)C(c1ccccc1)=NCc1c(C(=O)OCCCO)ncn1-2 [GL-I-48]', 'Cell viability (%) RAW macrophages 50 μM', 100);

Record lookup: for RAW macrophages, what Cell viability (%) RAW macrophages 50 μM belongs to CCc1noc(-c2ncn3c2CN=C(c2ccccn2)c2cc(Br)ccc2-3)n1 [GL-III-99] ?
100

# query: Cell viability (%) RAW macrophages 50 μM | item C[C@H]1N=C(c2ccccc2F)c2cc(C3CC3)ccc2-n2cnc(C(=O)N(C)C)c21 [GL-III-70] | system: RAW macrophages
100

// fetch RAW macrophages Cell viability (%) RAW macrophages 50 μM for CC1N=C(c2ccccc2F)c2cc(C#C[Si](C)(C)C)ccc2-n2cnc(-c3cnco3)c21 (stereo not drawn) [GL-III-72]
77

Look up Cell viability (%) RAW macrophages 50 μM with RAW macrophages for this molecule: C#Cc1ccc2c(c1)C(c1ccccn1)=NCc1c(C(=O)O)ncn1-2 [GL-III-13]
100

Request - read-out Cell viability (%) RAW macrophages 50 μM | tested on RAW macrophages | molecule C#Cc1ccc2c(c1)C(c1ccccc1F)=NC(C)c1c(C(=O)[O-])ncn1-2.[Na+] (stereo not drawn) [GL-IV-17]
100
